# assayed-target: T1, recombinant rat MASP1 active protease (amino acids 302-704, C-terminal His Tag) (rat, UniProt Q8CHN8 302-704)
# T1 sequence: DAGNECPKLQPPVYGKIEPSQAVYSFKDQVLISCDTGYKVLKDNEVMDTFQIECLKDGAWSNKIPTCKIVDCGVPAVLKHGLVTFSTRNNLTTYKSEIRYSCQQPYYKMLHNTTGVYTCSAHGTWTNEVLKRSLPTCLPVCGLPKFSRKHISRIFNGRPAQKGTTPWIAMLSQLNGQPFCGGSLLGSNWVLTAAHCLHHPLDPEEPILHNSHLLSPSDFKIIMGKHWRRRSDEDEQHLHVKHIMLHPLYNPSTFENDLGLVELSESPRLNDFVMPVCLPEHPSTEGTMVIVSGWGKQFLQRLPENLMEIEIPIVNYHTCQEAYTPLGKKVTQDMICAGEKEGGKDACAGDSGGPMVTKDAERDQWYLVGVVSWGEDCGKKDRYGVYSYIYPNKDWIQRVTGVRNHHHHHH
# experiment-description: cell-based or functional assay
Bridge positions count the residues as written; N and C are the ends. Square brackets hold non-standard residues; d marks the D form. Ends that are not written are not given here. * marks the point of attachment. Oic = O=C(O)[C@@H]1C[C@@H]2CCCC[C@@H]2N1; Cyclopropylacetic acid = O=C(CC1CC1)*; tBuAla = CC(C)(C)C[C@H](N)C(=O)O; Pen = CC(C)(S)[C@H](N)C(=O)O; NMeC = CN[C@@H](CS)C(=O)O; Nva = CCC[C@H](N)C(=O)O; Sar = CNCC(=O)O
List of rat MASP1 IC50 values.
Note to self: number, then unit, no commentary.

binder | rat MASP1 IC50
[Sar]ICSRSLP[Oic]I[Pen]IPT-OH (disulfide 3-11; N-terminus assumed; SMILES CC[C@H](C)[C@H](NC(=O)CNC)C(=O)N[C@H]1CSSC(C)(C)[C@@H](C(=O)N[C@H](C(=O)N2CCC[C@H]2C(=O)N[C@H](C(=O)O)[C@@H](C)O)[C@@H](C)CC)NC(=O)[C@H]([C@@H](C)CC)NC(=O)[C@@H]2C[C@@H]3CCCC[C@@H]3N2C(=O)[C@@H]2CCCN2C(=O)[C@H](CC(C)C)NC(=O)[C@H](CO)NC(=O)[C@H](CCCNC(=N)N)NC(=O)[C@H](CO)NC1=O) [Example 492: ((N-Me)G)-IC+SRSLP-(Oic)-I-(Pen)+IPT-OH] | 65 nM
[Sar]ICSRSLP[Oic]I[Pen]IP[PEG4‑CH2CO2H(15atoms)]-OH (disulfide 3-11) [Example 470: ((N-Me)G)-IC+SRSLP-(Oic)-I-(Pen)+IP-(PEG4-CH2CO2H (15 atoms))-OH] | 100 nM
[Sar]ICSRS[tBuAla]PPI[Pen]IP-{PEG5‑CH2CO2H (18 atoms)-NH2} (disulfide 3-11) [Example 55: ((N-Me)G)-IC+SRS-((tBu)A)-PPI-(Pen)+IP-(PEG5-CH2CO2H (18 atoms))-NH2] | 65 nM
[Nva]ICSRSLPPICIPD-NH2 (disulfide 3-11; N-terminus assumed; SMILES CCC[C@H](N)C(=O)N[C@H](C(=O)N[C@H]1CSSC[C@@H](C(=O)N[C@H](C(=O)N2CCC[C@H]2C(=O)N[C@@H](CC(=O)O)C(N)=O)[C@@H](C)CC)NC(=O)[C@H]([C@@H](C)CC)NC(=O)[C@@H]2CCCN2C(=O)[C@@H]2CCCN2C(=O)[C@H](CC(C)C)NC(=O)[C@H](CO)NC(=O)[C@H](CCCNC(=N)N)NC(=O)[C@H](CO)NC1=O)[C@@H](C)CC) [Example 216: (Nva)-IC+SRSLPPIC+IPD-NH2] | 240 nM

Input line: Fill blank: measured rat MASP1 IC50 of the binder {Cyclopropylacetic acid}-ICSRS[tBuAla]PPI[NMeC]I-NH2 (disulfide 2-10; SMILES CC[C@H](C)[C@H](NC(=O)[C@@H]1CSSC[C@H](NC(=O)[C@@H](NC(=O)CC2CC2)[C@@H](C)CC)C(=O)N[C@@H](CO)C(=O)N[C@@H](CCCNC(=N)N)C(=O)N[C@@H](CO)C(=O)N[C@@H](CC(C)(C)C)C(=O)N2CCC[C@H]2C(=O)N2CCC[C@H]2C(=O)N[C@@H]([C@@H](C)CC)C(=O)N1C)C(N)=O) [Example 274: (Cyclopropylacetic acid)-IC+SRS-((tBu)A)-PPI-((N-Me)C)+I-NH2] is ____.
Output line: 89 nM
